Experiment: activity coefficient (dimensionless); of the first substance listed, at infinite dilution; xn = mol fraction of the nth substance listed
Details: 373.15 K; 101 kPa; Liquid; Chromatography; x1 = 0
MEASUREMENT LABEL: activity coefficient
// print number alone

Fill blank: measured activity coefficient of the molecule C1CCOC1 [tetrahydrofuran] + CCCC[N+]1(C)CCCC1.O=C1O[B-]2(OC1=O)OC(=O)C(=O)O2 is ____.
1.16

Please look up its activity coefficient: CCC(C)=O [butanone] + CCCC[N+]1(C)CCCC1.O=C1O[B-]2(OC1=O)OC(=O)C(=O)O2
1.1

Please look up its activity coefficient: C1CCCCC1 [cyclohexane] + CCCC[N+]1(C)CCCC1.O=C1O[B-]2(OC1=O)OC(=O)C(=O)O2
13.6

Could you share which activity coefficient value was measured for ClC(Cl)(Cl)Cl [tetrachloromethane] + CCCC[N+]1(C)CCCC1.O=C1O[B-]2(OC1=O)OC(=O)C(=O)O2 ?
3.95

Reported activity coefficient for CO [methanol] + CCCC[N+]1(C)CCCC1.O=C1O[B-]2(OC1=O)OC(=O)C(=O)O2 : what is it?
0.99

# query: activity coefficient of entry ClCCl [dichloromethane] + CCCC[N+]1(C)CCCC1.O=C1O[B-]2(OC1=O)OC(=O)C(=O)O2
0.803
